Tested on: α-glucosidase (from Saccharomyces cerevisiae)
Assay: α-glucosidase inhibitory assay
Type: biochemical
MEASUREMENT_KIND: α-glucosidase inhibitory activity of isolated compounds (in words)

>>> result("CC(=O)c1nccc2c1[nH]c1ccccc12")
"no inhibitory activity"
>>> result("O=Cc1ccc(O)cc1 [4-hydroxybenzaldehyde]")
"no inhibitory activity"
